test system: IL-2 production; experiment: Inhibition of IL-2 production in PHA-activated Jurkat cells (ELISA); type: cell-based; settings: PHA 2.5 μg/mL, 20 hours at 37° C., IL-2 by ELISA, hydrochloride
pIC50: −log10 of the molar value. Structures can show the parent of a compound that is named as a salt.
measurement.kind: pIC50

I: Cc1cc(-c2ccccn2)sc1-c1ccc(NC(=O)c2snnc2C)cc1 [Compound 100, hydrochloride]
II: Cc1cnccc1C(=O)Nc1ccc(-c2sc(-c3ccno3)cc2C)cc1 [Compound 95, hydrochloride]
Between I and II , which one shows the smaller pIC50 number? // caller expects the label of the chosen entry
I
(I: 7.98, II: 8.36)

Ref: patent US20070275960A1
